Where these numbers come from: the supplement of paper PMC10567573

B1: P2RY14 (parent)
chain: KKIFKSHLKSSRNSTSVKKKSSRN

- Variants of: B1
- protocol.text: protein stability index of a GFP-peptide fusion (GPS, HEK-293T) (PSI 1-6); higher = more stable;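 further: lentivirally expressed fusions sorted by FACS into six bins by GFP to DsRed ratio, PSI derived from sequencing read proportions per bin multiplied by bin number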
- condition.context: c terminus: a fixed tail appended
Give Fulfilled when the value for protein stability index is at least 4. Give Not fulfilled when it is less.

INSERT INTO assay_data (variant_designation, cat) VALUES
  ('V17C', 'Fulfilled'),
  ('K20C', 'Not fulfilled'),
  ('R12W', 'Not fulfilled'),
  ('K2E', 'Fulfilled'),
  ('S14A', 'Not fulfilled'),
  ('S10F', 'Not fulfilled');
